test: BET inhibitor-based combinations targeting novel dependencies in MECOM-rearranged (r) AML: AML-191 cell line (AID 2202236; further: nearly all actives have a fitted effect of over 35% in size; further: potency means the concentration at half of the fitted maximal effect); settings: AML-191 viability, CellTiter-Glo luminescence, 48 h; series mostly up to 46 µM
Inconclusive results are not listed. The source made the active and inactive calls. The call rests on the fitted dose curve; in most records, active means well fitted inhibition curve with a large enough effect; inconclusive means small, poorly fitted or top-dose-only effect; inactive means flat fitted curve, though single readings scatter.
attribute-measured: Potency

compound="CCOC(=O)C1=C(C)NC2=C(C(=O)CC(C)(C)C2)C1c1ccc(-c2ccccc2)cc1 (centres undefined)" measurement=inactive
compound=CC1(C)CCC2=C(O1)c1ccccc1C(=O)C2=O measurement="7.42 µM (active)"
compound=c1cc(-c2cnn3cc(-c4ccc(OCCN5CCCCC5)cc4)cnc23)ccn1 measurement="8.33 µM (active)"
compound=COc1ccc(-n2cnc3cc(C(=O)N4CCCCC4)ccc32)cc1 measurement=inactive

The values you see were collected from PubChem BioAssay (NCATS).
